All values here come from patent US20190284262A1.

experimental.target: T1, R3 (RHAMM-R3) peptide/HLA-A*02:01 complex on T2 cells (human)
T1 construct: Control target of the phage staining of T2 cells; also called T2 cells pulsed with R3 peptide; RHAMM 3 (R3)
assay.comment: flow cytometry, phage on T2 + R3 peptide (as the table names the samples); secondary only 109, unstained 80.9
parameter.measured: Median:FITC-A
Returns: the value as a bare number; no unit string appended.

Record excerpt, results attached:
INSERT INTO measurements (binder, parameter_measured, val) VALUES
  ('EXT017-20 scFv phage clone (scFv, full-length scFv with His+HA tags; also called EXT017-20 phage) scFv: QSVVTQPPSVSAAPGQKVTISCSGSSSNIGAGYDVHWYQQLPGTAPKLLIYGNSNRPSGVPDRFSGSKSGTSASLAITGLQAEDEADYYCQSYDSSLSGSVFGGGTKLTVLGSRGGGGSGGGGSGGGGSLEMAEVQLVQSGAEVKKPGSSVKVSCKASGGTFSSYAISWVRQAPGQGLEWMGGIIPIFGTANYAQKFQGRVTITADESTSTAYMELSSLRSEDTAVYYCARYSYKYGELDTWGQGTLVTVSSTSGQAGQHHHHHHGAYPYDVPDYAS', 'Median:FITC-A', 128),
  ('Clone #5 (scFv, also called EXT017-5; EXT017-5 scFv phage clone) scFv (VL-linker-VH-His/HA tag): QSALTQPPSASGSPGQSVTISCTGTSSDVGGYNYVSWYQQHPGKAPKLMIYEVSKRPSGVPDRFSGSKSGNTASLTVSGLQAEDEADYYCSSYAGSNTHVVFGGGTKLTVLGSRGGGGSGGGGSGGGGSLEMAEVQLVQSGAEVKKPGASVKISCKASRYTFTNYYIHWVRQAPGQGLEWMGIINPSGGSTTYPQNFQGRLTMTRDTSTSTVYMELSSLRSEDTAMYYCARGWSGYDPGDFWGQGTLVTVSSTSGQAGQHHHHHHGAYPYDVPDYAS', 'Median:FITC-A', 129),
  ('EXT017-28 scFv phage clone (scFv, full-length scFv with His+HA tags; also called EXT017-28 phage; phage clone #28) scFv: QSVLTQPPSVSGAPGQRVTISCTGSSSNIGAGYDVHWYQQLPGTAPKLLIYGNSDRPSGVPDRFSGSKSGTSASLAITGLQAEDEADYYCQSYDSSLSGYVFGTGTKVTVLGSRGGGGSGGGGSGGGGSLEMAQMQLVQSGAEVKKPGSSVKVSCKASGGTFSTYAISWVRQAPGQGLEWMGGIIPIFGTANYAQKFQGRVTITADKSTSTAYMEVRNLRSEDTAVYYCARAEYVYGEYDQWGQGTLVTVSSTSGQAGQHHHHHHGAYPYDVPDYAS', 'Median:FITC-A', 118);

Ask: Give the measured Median:FITC-A of EXT017-53 scFv phage clone (scFv, full-length scFv with His+HA tags; also called EXT017-53 phage) scFv: NFMLTQPHSVSESPGKTVTISCTRSSGSIASHYVQWYQQRPGSSPTTVIYENNQRPSGVPDRFSGSIDSSSNSASLTISGLKTEDEADYYCQSYDRSNHVVFGGGTKLTVLGSRGGGGSGGGGSGGGGSLEMAQVQLVQSGAEVKKPGASVKVSCKASGYTFTNYYIHWVRQAPGEGLEWMGIIRPSGGNTNYAQKFQGRVTMTRDTSTRTVYMELSSLRSEDTAVYYCARSWNSRDVDSWGQGTLVTVSSTSGQAGQHHHHHHGAYPYDVPDYAS .
Result: 121
